molecular target: unphosphorylated-BTK kinase domain (UP-BTK), GST-tagged human BTK (389-659aa) (Homo sapiens (Human)); experiment: BTK kinase Lanthascreen binding assay; conditions: negative log of the IC50 in molar; 60 minutes incubation, 50 nM Tracer 236
Sequence (Q06187 389-659): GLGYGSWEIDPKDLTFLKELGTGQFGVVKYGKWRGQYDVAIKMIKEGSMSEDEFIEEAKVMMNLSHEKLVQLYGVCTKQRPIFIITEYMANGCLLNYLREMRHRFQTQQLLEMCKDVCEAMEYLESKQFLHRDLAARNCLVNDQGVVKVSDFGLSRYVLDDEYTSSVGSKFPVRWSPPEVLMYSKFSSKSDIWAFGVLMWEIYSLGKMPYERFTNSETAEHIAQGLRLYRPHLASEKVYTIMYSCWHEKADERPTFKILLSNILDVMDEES
Measurement type: BTK_I_binding pIC50
Enter the number alone.

So for C=CC(=O)N[C@H]1CCCC[C@H]1NC(=O)c1sc2nccc3c2c1NC(=O)N3c1cnc(CC(C)C)cc1C (single isomer, unassigned) , the logged BTK_I_binding pIC50 turned out to be 7.98

Attention now shifts to the item below.
So for C=CC(=O)N[C@H]1CCC[C@H]1NC(=O)c1sc2nccc3c2c1NC(=O)N3c1ccc(Oc2cccnc2)cc1 (relative stereo) , the logged BTK_I_binding pIC50 turned out to be 8.27
